Cited source: patent US20070128217A1

Tested on: antibodies in sera from SARS patients (sera 1a, 1b, 2, 6, 37, 62, London, SARS-yellow, SARS-green)
Assay type: binding, human
A collection of sequences and their measured Binding of serum 1b to linear peptides of protein N of SARS-CoV Urbani
Answer as a number with no unit attached.

{"polymer sequence": "NGGRNGARPKQRRPQ", "observed measurement": 0.1}
{"polymer sequence": "WPQIAQFAPSASAFF", "observed measurement": 0.1}
{"polymer sequence": "IVWVATEGALNTPKD", "observed measurement": 0.1}

# get_value(readout='Binding of serum 1b to linear peptides of protein N of SARS-CoV Urbani', item= `MEVTPSGTWLTYHGA` )
0.1

# get_value(readout='Binding of serum 1b to linear peptides of protein N of SARS-CoV Urbani', item= `KHWPQIAQFAPSASA` )
0.1

# get_value(readout='Binding of serum 1b to linear peptides of protein N of SARS-CoV Urbani', item= `ALTQHGKEELRFPRG` )
0.2

# get_value(readout='Binding of serum 1b to linear peptides of protein N of SARS-CoV Urbani', item= `RQKKQPTVTLLPAAD` )
0.2

# get_value(readout='Binding of serum 1b to linear peptides of protein N of SARS-CoV Urbani', item= `KEGIVWVATEGALNT` )
0.1

###

Tested on: antibodies in sera from SARS patients (sera 1a, 1b, 2, 6, 37, 62, London, SARS-yellow, SARS-green)
Format: binding, human
measured endpoint: Binding of serum 2 to looped/cyclic peptide (PEPSCAN-ELISA)
Answer as a number with no unit attached.

Recorded Binding of serum 2 to looped/cyclic peptide (PEPSCAN-ELISA), per entry:
{"polymer sequence": "IIALNKRWQLALYKG", "observed measurement": 0.5}
{"polymer sequence": "PLLYDANYFVCWHTH", "observed measurement": 0.4}
{"polymer sequence": "PLQASLPFGWLVIGV", "observed measurement": 0.4}
{"polymer sequence": "CRIIMRCWLCWKCKS", "observed measurement": 0.5}

# get_value(readout='Binding of serum 2 to looped/cyclic peptide (PEPSCAN-ELISA)', item= `TIYSHLLLVAAGMEA` )
0.3

###

Tested on: antibodies in sera from SARS patients (sera 1a, 1b, 2, 6, 37, 62, London, SARS-yellow, SARS-green)
Assay type: binding, human
Design: unit not given here
Binding of serum 6 to looped/cyclic peptides of protein M of SARS-CoV Urbani under 0.7 gets met, anything at or over 0.7 gets not met.

Check out these entries, answers already filled in.
{"polymer sequence": "RVGTDSGFAAYNRYR", "label class": "not met"}
{"polymer sequence": "WLLWPVTLACFVLAA", "label class": "met"}
{"polymer sequence": "RCDIKDLPKEITVAT", "label class": "met"}
{"polymer sequence": "KDLPKEITVATSRTL", "label class": "not met"}
{"polymer sequence": "CFVLAAVYRINWVTG", "label class": "not met"}
{"polymer sequence": "LMESELVIGAVIIRG", "label class": "met"}
{"polymer sequence": "AAYNRYRIGNYKLNT", "label class": "not met"}
{"polymer sequence": "LLQFAYSNRNRFLYI", "label class": "met"}
{"polymer sequence": "CDIKDLPKEITVATS", "label class": "met"}

Then this sequence:
Field: below-cutoff. Rule: recorded Binding of serum 6 to looped/cyclic peptides of protein M of SARS-CoV Urbani strictly less than 0.7. Subject: `YNRYRIGNYKLNTDH`
not met

###

System: antibodies in sera from SARS patients (sera 1a, 1b, 2, 6, 37, 62, London, SARS-yellow, SARS-green)
Type: binding, human
A collection of sequences and their measured Binding of serum London to looped/cyclic peptides of protein M of SARS-CoV Urbani
Answer as a number with no unit attached.

{"polymer sequence": "SQRVGTDSGFAAYNR", "observed measurement": 0.2}
{"polymer sequence": "TVATSRTLSYYKLGA", "observed measurement": 0.3}
{"polymer sequence": "AMACIVGLMWLSYFV", "observed measurement": 0.2}
{"polymer sequence": "LAAVYRINWVTGGIA", "observed measurement": 0.2}

# get_value(readout='Binding of serum London to looped/cyclic peptides of protein M of SARS-CoV Urbani', item= `VYRINWVTGGIAIAM` )
0.2

###

Test system: antibodies in sera from SARS patients (sera 1a, 1b, 2, 6, 37, 62, London, SARS-yellow, SARS-green)
Assay type: binding, human
A collection of sequences and their measured Binding of serum SARS-yellow to linear peptides of protein N of SARS-CoV Urbani
Answer as a number with no unit attached.

Recorded Binding of serum SARS-yellow to linear peptides of protein N of SARS-CoV Urbani, per entry:
{"polymer sequence": "HGAIKLDDKDPQFKD", "observed measurement": 0.6}
{"polymer sequence": "FYYLGTGPEASLPYG", "observed measurement": 0.7}
{"polymer sequence": "GPDDQIGYYRRATRR", "observed measurement": 0.6}

# get_value(readout='Binding of serum SARS-yellow to linear peptides of protein N of SARS-CoV Urbani', item= `HWPQIAQFAPSASAF` )
0.8

# get_value(readout='Binding of serum SARS-yellow to linear peptides of protein N of SARS-CoV Urbani', item= `PPTEPKKDKKKKTDE` )
0.6

# get_value(readout='Binding of serum SARS-yellow to linear peptides of protein N of SARS-CoV Urbani', item= `DDFSRQLQNSMSGAS` )
0.6

# get_value(readout='Binding of serum SARS-yellow to linear peptides of protein N of SARS-CoV Urbani', item= `PQIAQFAPSASAFFG` )
0.6

# get_value(readout='Binding of serum SARS-yellow to linear peptides of protein N of SARS-CoV Urbani', item= `SNQRSAPRITFGGPT` )
0.5

# get_value(readout='Binding of serum SARS-yellow to linear peptides of protein N of SARS-CoV Urbani', item= `KKQPTVTLLPAADMD` )
0.5

# get_value(readout='Binding of serum SARS-yellow to linear peptides of protein N of SARS-CoV Urbani', item= `QHGKEELRFPRGQGV` )
0.6

# get_value(readout='Binding of serum SARS-yellow to linear peptides of protein N of SARS-CoV Urbani', item= `GTGPEASLPYGANKE` )
0.6

###

Test system: antibodies in sera from SARS patients (sera 1a, 1b, 2, 6, 37, 62, London, SARS-yellow, SARS-green)
Type: binding, human
measured endpoint: Binding of serum 1a to linear peptides of protein X2

Recorded Binding of serum 1a to linear peptides of protein X2, per entry:
{"polymer sequence": "MLHSSSLTSLLKTHR", "observed measurement": 0.6}
{"polymer sequence": "YMAISPKFTTSLSLH", "observed measurement": 0.7}
{"polymer sequence": "QQWIQFMMSRRRLLA", "observed measurement": 0.6}
{"polymer sequence": "LVLKMLHSSSLTSLL", "observed measurement": 0.6}
{"polymer sequence": "LTSLLKTHRMCKYTQ", "observed measurement": 0.7}

# get_value(readout='Binding of serum 1a to linear peptides of protein X2', item= `LVVILRIGTQVLKTM` )
0.7

###

Tested on: control sera (pooled serum of ten healthy LUMC hospital workers; commercial negative donor pooled serum from the Dutch bloodbank)
Type: binding, human
Parameters: unit not given here
measured endpoint: Binding of Control serum LUMC to linear peptides
Answer as a number with no unit attached.

{"polymer sequence": "AFLAVFQSATKIIAL", "observed measurement": 0.5}

# get_value(readout='Binding of Control serum LUMC to linear peptides', item= `GISTPKLKEDYQIGG` )
0.4

# get_value(readout='Binding of Control serum LUMC to linear peptides', item= `LQTLVLKMLHSSSLT` )
0.5

# get_value(readout='Binding of Control serum LUMC to linear peptides', item= `VIGVAFLAVFQSATK` )
0.5

# get_value(readout='Binding of Control serum LUMC to linear peptides', item= `HTYQLRARSVSPKLF` )
0.9

# get_value(readout='Binding of Control serum LUMC to linear peptides', item= `LTSLLKTHRMCKYTQ` )
0.4

###

A collection of sequences and their measured Binding of serum 62 to linear peptides of protein N of SARS-CoV Urbani
Tested on: antibodies in sera from SARS patients (sera 1a, 1b, 2, 6, 37, 62, London, SARS-yellow, SARS-green)
Assay type: binding, human
Answer as a number with no unit attached.

# get_value(readout='Binding of serum 62 to linear peptides of protein N of SARS-CoV Urbani', item= `QSNQRSAPRITFGGP` )
0.7

# get_value(readout='Binding of serum 62 to linear peptides of protein N of SARS-CoV Urbani', item= `HGKEELRFPRGQGVP` )
0.7

###

Tested on: antibodies in sera from SARS patients (sera 1a, 1b, 2, 6, 37, 62, London, SARS-yellow, SARS-green)
Type: binding, human
measured endpoint: Binding of serum SARS-green to linear peptides of protein X4 of SARS-CoV Urbani

{"polymer sequence": "RARSVSPKLFIRQEE", "observed measurement": 0.6}
{"polymer sequence": "LFIRQEEVQQELYSP", "observed measurement": 0.6}
{"polymer sequence": "ALVFLILCFTIKRKT", "observed measurement": 0.7}
{"polymer sequence": "SCELYHYQECVRGTT", "observed measurement": 0.5}

// moving on: another record for Binding of serum SARS-green to linear peptides of protein X4 of SARS-CoV Urbani
# get_value(readout='Binding of serum SARS-green to linear peptides of protein X4 of SARS-CoV Urbani', item= `AALVFLILCFTIKRK` )
0.7
